Consider the following compounds; for each one, report its activity.
target: CYP2C9 (Homo sapiens)
Sequence (P11712 whole entry): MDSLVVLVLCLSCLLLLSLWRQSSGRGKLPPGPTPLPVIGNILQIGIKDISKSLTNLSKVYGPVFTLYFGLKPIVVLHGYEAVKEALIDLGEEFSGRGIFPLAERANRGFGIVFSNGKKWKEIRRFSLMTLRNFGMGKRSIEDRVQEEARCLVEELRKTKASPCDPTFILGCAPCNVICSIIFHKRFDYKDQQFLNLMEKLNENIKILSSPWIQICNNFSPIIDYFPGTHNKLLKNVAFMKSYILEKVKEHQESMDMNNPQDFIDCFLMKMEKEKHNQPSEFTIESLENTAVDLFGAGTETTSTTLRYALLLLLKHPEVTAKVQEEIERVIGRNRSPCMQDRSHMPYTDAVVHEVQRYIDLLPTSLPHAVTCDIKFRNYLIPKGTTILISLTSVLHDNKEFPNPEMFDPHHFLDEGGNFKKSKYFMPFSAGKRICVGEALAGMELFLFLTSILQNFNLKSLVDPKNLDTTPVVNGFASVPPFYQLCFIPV
protocol summary: Activation of human CYP2C9 assessed as (S)-Flurbiprofen hydroxylation
Type: ADME
Parameters: concentration or dose not given beside the values
assay setup: probe (S)-flurbiprofen
One number for each entry, in %.

Consider the reported activity for these compounds:
1) Cc1cccc(C(=O)[C@@H](O)c2cccc(C)n2)n1: 46
2) NCC(=O)Nc1ccc2ccccc2c1: 4.4
3) Cn1c(=O)c2c(ncn2CN2CCCC2)n(C)c1=O: 3
4) Cn1c(=O)[nH]c(=O)c2ncn(CC(=O)c3ccc(F)cc3)c21: 7.7
5) [O-][S+](c1ccccc1)c1ccccc1: 3.5
6) Cc1ccc([C@@H]2NC(=O)c3ccccc3N2)cc1: 6.6
7) Cc1ccc(S(=O)(=O)c2ccc(C)cc2)cc1: 50.6
8) O=S(=O)(c1ccc(O)cc1)c1ccc(O)cc1: 95

Batch of 2 compounds: report activity for each.
1. O=S(=O)(c1ccccc1)c1ccccc1 [(PHENYLSULFONYL)BENZENE]
2. CC(=O)Oc1ccc(S(=O)(=O)c2ccc(OC(C)=O)cc2)cc1

40
8

* * *

Consider the following molecules; for each one, report its inhibition at 100 µM.
target: CYP2C9 (Homo sapiens)
protocol summary: Inhibition of human CYP2C9 assessed as (S)-Flurbiprofen hydroxylation at 100 uM
Type: ADME
assay setup: probe (S)-flurbiprofen
Please give the number followed by its unit.

1. O=C(c1ccc(F)cc1)c1cnc2sccn12: 50%

Shifting focus to the molecule that follows.
Given the entry CN1C(=O)N(c2ccc(Cl)c(Cl)c2)C(=N)C1=S , report its measured inhibition at 100 µM.
50%
